These data points were gathered from patent US20250186452A1.

Measured target: TEL-CSF1R-BaF3 (Homo sapiens, UniProt P07333)
Construct: expressed in transfected cells; host or cells: mouse BaF3 cells (ATCC), retroviral transduction with MSCV-Puro vector, IL-3 withdrawn; the other entry of the earlier key: ETV6 (P41212, Transcription factor ETV6)
Sequence (P07333 582-910 limits assumed): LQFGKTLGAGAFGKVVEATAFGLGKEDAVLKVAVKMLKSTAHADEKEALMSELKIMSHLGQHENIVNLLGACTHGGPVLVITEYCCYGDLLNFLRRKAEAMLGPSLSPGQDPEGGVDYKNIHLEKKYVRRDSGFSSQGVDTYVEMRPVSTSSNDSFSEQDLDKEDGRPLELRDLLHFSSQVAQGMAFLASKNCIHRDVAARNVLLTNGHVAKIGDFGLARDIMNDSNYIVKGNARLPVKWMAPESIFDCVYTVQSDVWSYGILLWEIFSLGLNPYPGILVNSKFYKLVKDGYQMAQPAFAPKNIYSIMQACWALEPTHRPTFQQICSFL
Experimental protocol: Proliferation of TEL-CSF1R-BaF3 cells (CCK-8, 72 hours)
Assay type: cell-based
Condition description: 72 hours incubation, CCK-8
The threshold is 0.009 µM. Values of GI50 beneath it are tagged Met; values meeting or exceeding it are tagged Not met.

Please review the following examples before continuing.
query_smiles=COc1cc2nccc(Oc3ccc(NC(=O)Cc4ccc(C)c(C)c4)cc3)c2cc1OC class=Met
query_smiles=COc1cc2nccc(Oc3ccc(NC(=O)Cc4c(F)cccc4F)cc3)c2cc1OC class="Not met"
query_smiles=COc1cc2nccc(Oc3ccc(NC(=O)Cc4ccc(Cl)c(C(F)(F)F)c4)c(Cl)c3)c2cc1OC class=Met
query_smiles=COc1cc2nccc(Oc3ccc(NC(=O)Cc4ccccc4)cc3)c2cc1OC class="Not met"
query_smiles=COc1cc2nccc(Oc3ccc(NC(=O)Cc4ccc(Cl)c(Cl)c4)cc3)c2cc1OC class=Met
query_smiles=COc1cc2nccc(Oc3ccc(NC(=O)Cc4cccc(C(F)(F)F)c4)c(Cl)c3)c2cc1OC class="Not met"

Lookup: I'd appreciate it if you could check whether "COc1cc2nccc(Oc3ccc(NC(=O)Cc4cccc(C(F)(F)F)c4)cc3)c2cc1OC" has GI50 smaller than 0.009 µM.
Found: Met

Lookup: Next record, please: "COc1cc2nccc(Oc3ccc(NC(=O)Cc4ccc(C)c(C(F)(F)F)c4)cc3)c2cc1OC"
Found: Met

Lookup: Next record, please: "COc1cc2nccc(Oc3ccc(NC(=O)Cc4ccc5ccccc5c4)cc3)c2cc1OC"
Found: Met
